Target: Fuc-TIII (Homo sapiens, UniProt P21217)
Construct: showing that this insert is essentially full-length; expressed in transfected cells; host or cells: COS-1 cells (monkey kidney), transient DEAE-dextran transfection, 1% Triton X-100 extract
Sequence (P21217 whole entry): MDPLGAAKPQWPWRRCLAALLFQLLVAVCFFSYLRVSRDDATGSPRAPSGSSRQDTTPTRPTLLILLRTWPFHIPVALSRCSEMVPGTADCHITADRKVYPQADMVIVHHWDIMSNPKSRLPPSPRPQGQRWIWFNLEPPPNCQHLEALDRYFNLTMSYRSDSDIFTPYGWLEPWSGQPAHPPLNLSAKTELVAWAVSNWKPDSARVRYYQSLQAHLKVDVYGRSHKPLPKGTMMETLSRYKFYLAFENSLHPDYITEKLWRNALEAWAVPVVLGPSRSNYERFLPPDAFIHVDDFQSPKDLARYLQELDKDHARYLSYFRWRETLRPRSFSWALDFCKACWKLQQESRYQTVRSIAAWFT
Assay: Fucosyltransferase assay, extracts of COS-1 cells expressing the Lewis fucosyltransferase
Type: biochemical
Settings: relative product formation rate, N-acetyllactosamine = 100; acceptor 20 mM (2-fucosyllactose 5 mM); GDP-[14C]fucose 3 μM; transfected COS-1 cell extract
assay metric: Relative Activity (%) with Fuc-TIII
Answer in %, number only, no unit symbol.

Input line: // lookup Relative Activity (%) with Fuc-TIII for CC(=O)NC1C(O)OC(CO)C(OC2OC(CO)C(O)C(OC3(C(=O)O)CC(O)C(NC(C)=O)C(C(O)C(O)CO)O3)C2O)C1O (stereo not shown)
Output line: 56

Input line: // query Relative Activity (%) with Fuc-TIII value for entry OC[C@H]1O[C@@H](O[C@H]2[C@H](O)[C@@H](O)C(O)O[C@@H]2CO)[C@H](O)[C@@H](O)[C@H]1O (stereo partly shown)
Output line: 145

Input line: Would you kindly share the measured Relative Activity (%) with Fuc-TIII for CC(=O)N[C@H]1C(O)O[C@H](CO)[C@@H](O[C@@H]2O[C@H](CO)[C@H](O)[C@H](O)[C@H]2O)[C@@H]1O (stereo partly shown) ?
Output line: 100

Input line: // returns reported Relative Activity (%) with Fuc-TIII for input `CC(=O)N[C@@H]1[C@@H](O[C@@H]2O[C@H](CO)[C@H](O)[C@H](O)[C@H]2O)[C@H](O)[C@@H](CO)O[C@@H]1O`
Output line: 420

###

Record form. Attribute: Relative Activity (%) with Fuc-TVI. Fill in for each entry.
Target: Fuc-TVI (Homo sapiens)
Construct: a 1.2 kb fragment containing the entire open reading frame was generated by the polymerase chain reaction; expressed in transfected cells; host or cells: COS-1 cells, transient transfection, 1% Triton X-100 extract
Sequence (P51993 whole entry, the tested form may be a part): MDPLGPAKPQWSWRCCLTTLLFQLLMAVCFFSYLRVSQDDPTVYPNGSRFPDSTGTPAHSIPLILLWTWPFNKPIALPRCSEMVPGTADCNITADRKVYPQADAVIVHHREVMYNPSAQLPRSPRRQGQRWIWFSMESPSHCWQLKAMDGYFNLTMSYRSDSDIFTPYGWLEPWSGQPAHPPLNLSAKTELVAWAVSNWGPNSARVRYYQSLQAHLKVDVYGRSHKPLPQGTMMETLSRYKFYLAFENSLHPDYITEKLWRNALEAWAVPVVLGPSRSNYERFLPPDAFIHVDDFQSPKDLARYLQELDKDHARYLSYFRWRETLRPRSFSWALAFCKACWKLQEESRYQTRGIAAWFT
Assay: Fucosyltransferase assay, extracts of COS-1 cells transfected with pCDNA1-Fuc-TVI
Format: biochemical
Details: relative product formation rate, N-acetyllactosamine = 100; acceptor 20 mM (2-fucosyllactose 5 mM); GDP-[14C]fucose 3 μM; transfected COS-1 cell extract
Response body: numeric value in %, unit text excluded.

Input line: Record request: Relative Activity (%) with Fuc-TVI value, item CC(=O)N[C@H]1C(O)O[C@H](CO)[C@@H](O[C@@H]2O[C@H](CO)[C@H](O)[C@H](O)[C@H]2O)[C@@H]1O (stereo partly shown)
Output line: 100

Input line: # input compound: CC(=O)NC1C(O)OC(CO)C(OC2OC(CO)C(O)C(OC3(C(=O)O)CC(O)C(NC(C)=O)C(C(O)C(O)CO)O3)C2O)C1O (stereo not shown) ; wanted: its Relative Activity (%) with Fuc-TVI
Output line: 110

###

Biological target: Fuc-TV (Homo sapiens)
Construct: a 1.94 kb Earl-Xbal fragment containing the entire open reading frame was cloned into a mammalian expression vector; expressed in transfected cells; host or cells: COS-1 cells, transient transfection, 1% Triton X-100 extract
Sequence (Q11128 whole entry, the tested form may be a part): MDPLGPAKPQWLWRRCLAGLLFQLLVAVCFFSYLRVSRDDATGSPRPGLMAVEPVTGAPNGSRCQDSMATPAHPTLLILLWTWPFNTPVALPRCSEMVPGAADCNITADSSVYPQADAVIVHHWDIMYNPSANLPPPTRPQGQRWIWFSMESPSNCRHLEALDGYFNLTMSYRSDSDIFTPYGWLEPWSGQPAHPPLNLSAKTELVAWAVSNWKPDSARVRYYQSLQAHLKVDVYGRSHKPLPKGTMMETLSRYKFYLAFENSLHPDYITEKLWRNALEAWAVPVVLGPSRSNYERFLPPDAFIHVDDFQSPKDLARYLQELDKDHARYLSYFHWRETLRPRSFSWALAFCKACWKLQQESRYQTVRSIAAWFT
Assay: Fucosyltransferase assay, extracts of COS-1 cells transfected with pCDNA1-Fuc-TV
Type: biochemical
Conditions: relative product formation rate, N-acetyllactosamine = 100; acceptor 20 mM (2-fucosyllactose 5 mM); GDP-[14C]fucose 3 μM; transfected COS-1 cell extract
Please go through the items and note down their Relative Activity (%) with Fuc-TV.
Report as a plain number; the unit % is understood.

Input line: Find the recorded Relative Activity (%) with Fuc-TV belonging to CC(=O)N[C@H]1C(O)O[C@H](CO)[C@@H](O[C@@H]2O[C@H](CO)[C@H](O)[C@H](O)[C@H]2O)[C@@H]1O (stereo partly shown) [N-acetyllactosamine] and report it.
Output line: 100

Input line: Report Relative Activity (%) with Fuc-TV for CC(=O)NC1C(O)OC(CO)C(OC2OC(CO)C(O)C(OC3(C(=O)O)CC(O)C(NC(C)=O)C(C(O)C(O)CO)O3)C2O)C1O (stereo not drawn) [α(2,3)sialyllactosamine, NeuAcα(2→3)Galβ(1→4)GlcNAc] please.
Output line: 115

Input line: Consider the compound shown here: OC[C@H]1O[C@@H](O[C@H]2[C@H](O)[C@@H](O)C(O)O[C@@H]2CO)[C@H](O)[C@@H](O)[C@H]1O (stereo partly shown) [lactose] What is its recorded Relative Activity (%) with Fuc-TV?
Output line: 11

Input line: Entry under review: CC(=O)N[C@@H]1[C@@H](O[C@@H]2O[C@H](CO)[C@H](O)[C@H](O)[C@H]2O)[C@H](O)[C@@H](CO)O[C@@H]1O [lacto-N-biose I] . Reported Relative Activity (%) with Fuc-TV?
Output line: 10
